Tested on: endogenous genome targets (ACTB, HSP90AA1)
Test: Arrayed SSAP library screening, mKate knock-in assay (editing efficiency)
Assay type: cell-based
Details: percent of mKate knock-in; average of HSP90 and ACTB; 3 days after transfection
recorded-metric: Editing Efficiency (Absolute, Average, two targets)
# answer = number (no unit)

Query block: Field request: Editing Efficiency (Absolute, Average, two targets) | item: SSAP_152: SEQ ID NO: 321; Clostridiaceae bacterium (protein, listed as Clostridiaceae bacterium) SNLKKALKTNETKGNSVTVSKAYAMKQLMIKMKGEITSALPTNLSSERFEKVALTAFNSNPKLQKCDPRTFIAAMMQSAQLGLEPNTALGLAYLIPYEVKGINKVQFQIGYKGLLELANRSGKLKTLYAHEVRENDEFDIDYGLEQKLIHKPLLKGNRGNVIGYYAVYHLEPSGYNFVFMTYDEVLEHGKKYSKSFEGGVWEKEFDSMAKKTVIKKLLKYAPLSIEMQKAIVFDESVKGSIDSDMLLVDKEDESIEGSELN
Result block: 16.25
